- test-method-notes: recombinant UMI read abundance after kanamycin selection (control-corrected) (log10(CPM+1)); higher = more efficient recombination; extreme values may be limits of the assay; sequences stand for … in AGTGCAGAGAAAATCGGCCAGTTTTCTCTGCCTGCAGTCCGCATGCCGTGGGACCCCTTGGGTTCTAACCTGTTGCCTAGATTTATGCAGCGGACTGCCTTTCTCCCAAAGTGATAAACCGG…AGGTTGGTTTCACT; site = the 11-nt donor;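 further: IS621 bridge recombinase in Escherichia coli cells against a fixed T5 target plasmid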
measurement-type: recombinant UMI read abundance (log10)

Problem: Any idea what its recombinant UMI read abundance (log10) is? The sequence is CGAGAGTCATGGACCGGTTTTCCCGGTAATCCGTATTTGCC (site CGGGAGTCTGG)
Solution: 1.46

Problem: Any idea what its recombinant UMI read abundance (log10) is? The sequence is CAAGAAGCATGGACCGGTTTTCCCGGTAATCCGTATTTGCT (site CAAGTAGCTAG)
Solution: 1.17

Problem: Any idea what its recombinant UMI read abundance (log10) is? The sequence is CCCCAGCCATGGACCGGTTTTCCCGGTAATCCGTATTTGCC (site CCCGAGCCTGG)
Solution: 0

Problem: Any idea what its recombinant UMI read abundance (log10) is? The sequence is CCCGGCCCATGGACCGGTTTTCCCGGTAATCCGTATTTGTT (site CTCGGCCCTAA)
Solution: 0

Problem: Any idea what its recombinant UMI read abundance (log10) is? The sequence is AGAAAACCATGGACCGGTTTTCCCGGTAATCCGTATTTGCG (site AGAAAACCTCG)
Solution: 0

// provenance: the supplement of paper PMC11208160
